test system: iNKT; assay: Effect on human iNKT MAD11 cells stimulation assessed as increase in IL-13 production pretreated with HeLa cells for overnight prior to iNKT MAD11 cells addition and measured after 24 hrs by ELISA; type: cell-based
measured-metric: Activity

CCCCCCCCCCCCCCCCCCCCCCCCCC(=O)N[C@@H](CO[C@H]1O[C@H](CO)[C@H](O)[C@H](O)[C@H]1O)C(F)(F)[C@H](O)CCCCCCCCCCCCCC | Non-Toxic
CCCCCCCCCCCCCCCCCCCCCCCCCC(=O)N[C@@H](CO[C@H]1O[C@H](CO)[C@H](O)[C@H](O)[C@H]1O)[C@H](O)[C@H](O)CCCCCCCCCCCCCC [RGI-7000] | Non-Toxic
CCCCCCCCCCCCCCCCCCCCCCCCCC(=O)N[C@@H](CO[C@H]1O[C@H](CO)[C@H](O)[C@H](O)[C@H]1O)C(F)(F)[C@@H](O)CCCCCCCCCCCCCC | Non-Toxic
CCCCCCCCCCCCCCCCCCCCCCCCCC(=O)N[C@@H](CO[C@H]1O[C@H](CO)[C@H](O)[C@H](O)[C@H]1O)C(F)(F)C(F)(F)CCCCCCCCCCCCCC | Non-Toxic
